Tested on: HT-29
TEST_DESCRIPTION: Cytotoxicity against human HT-29 cells by MTT assay
Assay type: functional
SETTINGS: read-out: ED50 (the source's name)
RESULT_TYPE: EC50

Consider the reported EC50 for these molecules:
[[record]]
molecule = "CCCC(=O)O[C@H]1C/C(C)=C\\[C@@H]2OC(=O)[C@]3(C)O[C@]23[C@H](OC(C)=O)[C@H]2[C@@H](C)[C@@H](OC(C)=O)C[C@H](OC(C)=O)[C@]2(C)[C@@H]1OC(C)=O [EXCAVATOLIDE I]"
endpoint_result = "> 50 µg/mL"

[[record]]
molecule = "CCCC(=O)O[C@H]1C[C@H](OC(C)=O)[C@@]2(C)[C@H]([C@H]1C)[C@@H](OC(C)=O)[C@]13O[C@@]1(C)C(=O)O[C@H]3/C=C(C)\\C=C\\[C@@H]2OC(C)=O [EXCAVATOLIDE F]"
endpoint_result = "5.5 µg/mL"

[[record]]
molecule = "CC(=O)O[C@H]1C[C@H](OC(C)=O)[C@@]2(C)[C@H]([C@H]1C)[C@@H](OC(C)=O)[C@]13O[C@@]1(C)C(=O)O[C@H]3/C=C(/C)CC[C@H]2OC(C)=O [EXCAVATOLIDE G]"
endpoint_result = "> 50 µg/mL"


API: the following record is the query input.
Using known records, supply EC50 for CC(=O)O[C@H]1C[C@H](OC(C)=O)[C@@]2(C)[C@H]([C@H]1C)[C@@H](OC(C)=O)[C@]13O[C@@]1(C)C(=O)O[C@H]3/C=C(/C)C[C@H](OC(C)=O)[C@H]2OC(C)=O [EXCAVATOLIDE K] 1.3 µg/mL

====

System: HT-29
TEST_DESCRIPTION: Cytotoxicity against human HT-29 cells by MTT assay
Assay type: functional
SETTINGS: read-out: ED50 (the source's name)
Attribute: EC50
Give the value, in units of µg/mL, as a plain number.

[[record]]
molecule = "CC(=O)O[C@H]1C/C(C)=C\\[C@@H]2OC(=O)[C@]3(C)O[C@]23[C@H](O)[C@H]2[C@@H](C)[C@@H](O)C[C@H](OC(C)=O)[C@]2(C)[C@@H]1O [EXCAVATOLIDE M]"
tested_target = "HT-29"
unit_string = "µg/mL"
endpoint_result = 2.2


API: the following record is the query input.
Using known records, supply EC50 for CCCC(=O)O[C@H]1C[C@H](OC(C)=O)[C@@]2(C)[C@H]([C@H]1C)[C@@H](OC(C)=O)[C@]13O[C@@]1(C)C(=O)O[C@H]3/C=C(/C)C[C@H](OC(C)=O)[C@H]2OC(C)=O [EXCAVATOLIDE J] 5.2
